# assay-explanation: P. aeruginosa biofilm formation inhibitors, primary screen, strain PAO1, LB-PBS medium, absorbance 600 nm (AID 1176); also: test concentration not given here
# measurement-context: P. aeruginosa PAO1 growth/biofilm, A600, 12 h; higher = more signal
Task for the reader: assign each of the following molecules its reported z-score.
Give bare numbers.

Looking up "COc1cc(CO)cc(I)c1O[C@H]1C=C(C(=O)NCCO)C[C@@H](NCc2ccccc2F)[C@@H]1O" , I see its z-score listed as -0.365

Provide the reported z-score of each entry below, same order.
1. COc1ccc([Si](C)(C)[C@H]2[C@H](CCn3cc([C@H](O)c4ccccc4)nn3)O[C@@]3(C(=O)N(Cc4ccc(N5CCOC5=O)cc4)c4ccccc43)[C@@H]2C)cc1
2. NC(=O)NCC#Cc1ccc2c(c1)[C@]1(C(=O)N2)[C@H](c2ccc(O)cc2)N2[C@H](c3ccccc3)[C@H](c3ccccc3)OC(=O)[C@H]2[C@@H]1C(=O)Nc1nc2ccccc2s1

Result:
[1.04, 4.48]

----------
# Tested on: Noggin (protein binding on small-molecule microarray)
# assay-explanation: Noggin binders on small-molecule microarray, primary screen, biochemical, 635/667 nm fluorescence (AID 1095);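 also: score merges 667 nm feature fluorescence with signal to noise over triplicate slides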
# measurement-context: 635 nm fluorescence, higher = more signal
Each entry gets 0 if its composite z-score stays under -0.2, and 1 if its composite z-score is -0.2 or above.

Recorded results for 2 compounds are shown here.
Problem: Reported composite z-score reaches at least -0.2 for CCOc1cc(C(O)C2C=CC3C(=O)N(C4CCCCC4)C(=O)C3N2Nc2ccc(OC)cc2)ccc1O (stereo not given) ?
Result: 1

Problem: Reported composite z-score reaches at least -0.2 for "CC(C)C(=C=CC[C@@H](O)c1ccccc1OCCO)C[C@@H](O)COCc1ccccc1" ?
Result: 1

Others:
Problem: Reported composite z-score reaches at least -0.2 for "CN1C(=O)[C@@]2(CCS(=O)(=O)c3ccccc3)N=C(c3ccc(OCCCO)cc3)O[C@H]2c2ccccc21" ?
Result: 1

Problem: Reported composite z-score reaches at least -0.2 for "COC(=O)[C@@]1(Cc2ccc(F)cc2)[C@H]2c3cc(C(=O)N4CCCC4)n(CCc4c[nH]c5ccc(OC)cc45)c3C[C@H]2CN1C(=O)c1ccccc1" ?
Result: 1

Problem: Reported composite z-score reaches at least -0.2 for "CCOC(=O)C[C@H]1[C@H](OC(=O)Cc2ccc3c(c2)OCO3)[C@@H](NC(=O)Cc2ccc(OC)cc2)c2cc(OCCCO)ccc2N1C(=O)c1ccccc1" ?
Result: 1

Problem: Reported composite z-score reaches at least -0.2 for "CCOC(=O)C1=CC[C@@H](c2ccccc2C(F)(F)F)N(S(=O)(=O)c2ccc(C)cc2)C1" ?
Result: 1

Problem: Reported composite z-score reaches at least -0.2 for CC=CC(O)C1C=CC2C(=O)N(c3ccccc3)C(=O)C2N1Nc1ccc([N+](=O)[O-])cc1 (stereo not given) ?
Result: 1

Problem: Reported composite z-score reaches at least -0.2 for "C[C@@H]1ON(c2ccc(C(=O)OC(C)(C)C)cc2)[C@H](c2ccc(Br)cc2)[C@H]1C(=O)N1C(=O)OC[C@H]1Cc1ccccc1" ?
Result: 1

Problem: Reported composite z-score reaches at least -0.2 for "COc1ccc([Si](C)(C)[C@H]2[C@H](CCn3cc([C@H](O)c4ccccc4)nn3)O[C@@]3(C(=O)N(Cc4ccc(N5CCC5=O)cc4)c4ccccc43)[C@@H]2C)cc1" ?
Result: 1

Problem: Reported composite z-score reaches at least -0.2 for "COc1c(C)cc(-c2cc3c(c(-c4ccccc4)n2)[Si](C(C)C)(C(C)C)OC3)cc1C" ?
Result: 0

Problem: Reported composite z-score reaches at least -0.2 for "CN(C)C(=O)[C@@]1(Cc2ccccc2N=[N+]=[N-])COC(c2ccc(OCCCO)cc2)=N1" ?
Result: 1

Problem: Reported composite z-score reaches at least -0.2 for "COC(=O)[C@@]1(Cc2ccccc2)[C@H]2c3cc(C(=O)N4CCCC4)[nH]c3C[C@H]2CN1C(=O)c1ccccc1" ?
Result: 0

Problem: Reported composite z-score reaches at least -0.2 for "CO[C@H]1O[C@H](CO)[C@@H](OC(=O)Nc2ccccc2-c2ccccc2)[C@H](OC(=O)Nc2ccc3c(c2)OCO3)[C@@H]1OC(=O)Nc1ccc2c(c1)OCO2" ?
Result: 1

Problem: Reported composite z-score reaches at least -0.2 for "[N-]=[N+]=NCc1ccccc1C[C@@]1(C(=O)NCCN2CCOCC2)N=C(c2ccc(OCCCO)cc2)O[C@@H]1c1ccccc1N=[N+]=[N-]" ?
Result: 1

Problem: Reported composite z-score reaches at least -0.2 for "O=C1C[C@]2(c3ccc([N+](=O)[O-])cc3)C(=O)N(Cc3ccccc3)c3cc(CO)ccc3[C@H]2N1CC12CC3CC(CC(C3)C1)C2" ?
Result: 0

Problem: Reported composite z-score reaches at least -0.2 for "CCCC=C(CCC)[C@@H](NP(=O)(c1ccccc1)c1ccccc1)c1ccc(C(F)(F)F)cc1" ?
Result: 1

Problem: Reported composite z-score reaches at least -0.2 for C[C@]12C(=O)N(CCCCCCO)[C@@H]3C(=O)N(c4ccc(Cl)cc4)CC=CC31O[C@@H]1/C=C\CCCOC(=O)C12 (stereo not given in full) ?
Result: 0

Problem: Reported composite z-score reaches at least -0.2 for "COc1ccc(CCNC(=O)[C@@]2(Sc3ccc(C)cc3)CC(=O)N(Cc3cc(C(F)(F)F)cc(C(F)(F)F)c3)[C@@H]2c2ccc(CO)cc2I)cc1" ?
Result: 0

Problem: Reported composite z-score reaches at least -0.2 for "COc1ccc([Si](C)(C)[C@H]2[C@H](CCO)O[C@@]3(C(=O)N(Cc4cccc(N5CCCCC5=O)c4)c4ccccc43)[C@@H]2C)cc1" ?
Result: 1

Problem: Reported composite z-score reaches at least -0.2 for "Cc1c(NC(=O)/C(C#N)=C/C=C/c2ccccc2[N+](=O)[O-])c(=O)n(-c2ccccc2)n1C" ?
Result: 1

Problem: Reported composite z-score reaches at least -0.2 for "COc1ccc([Si](C)(C)[C@H]2[C@H](CCn3cc([C@H](O)c4ccccc4)nn3)O[C@@]3(C(=O)N(Cc4cccc(N5C(=O)c6cccc7cccc5c67)c4)c4ccccc43)[C@@H]2C)cc1" ?
Result: 0

Problem: Reported composite z-score reaches at least -0.2 for CC=CC(O)C1C=CC2C(=O)N(C)C(=O)C2N1Nc1ccc([N+](=O)[O-])cc1[N+](=O)[O-] (stereo not given) ?
Result: 0

Problem: Reported composite z-score reaches at least -0.2 for O=C1OC[C@@H](c2ccccc2)N2CC(/C=C/c3ccccc3)=CC12 (stereo not given in full) ?
Result: 0

Problem: Reported composite z-score reaches at least -0.2 for "[N-]=[N+]=NCc1ccccc1[C@H]1OC(c2ccc(OCCCO)cc2)=N[C@@]1(CCS(=O)(=O)c1ccccc1)C(N)=O" ?
Result: 1
